# target under test: Torsin-1A (Homo sapiens)
# measurement protocol: TOR1A wild-type binding on microarray – cell lysate, small-molecule microarray, lysate, 635/667 nm, primary screen (AID 1149)
# recorded conditions: COS7 hTOR1A-WT lysate, 635 nm fluorescence, higher = more signal
// values below are reported composite z-score
assay endpoint: composite z-score

[
  {
    "compound": "C=CCOC(=O)[C@H]1[C@@H]2C(=O)O[C@@H](c3ccccc3)[C@@H](c3ccccc3)N2[C@@H](c2ccc(OCCOC(=O)[C@H]3C[C@H]4C(=O)N[C@@H](CC(C)C)C(=O)N4[C@H]3c3ccc(O)cc3)cc2)[C@]12C(=O)Nc1ccccc12",
    "assay endpoint": "composite z-score",
    "number": 0.739
  },
  {
    "compound": "CCOC(=O)C1=CC[C@@H](c2ccc(OC)cc2)N(S(=O)(=O)c2ccc(C)cc2)[C@H]1c1ccc(C)cc1",
    "assay endpoint": "composite z-score",
    "number": -0.414
  },
  {
    "compound": "CCCN1C(=O)[C@]2(CCC(=O)OC(C)(C)C)N=C(c3ccc(OCCCO)cc3)O[C@@H]2c2ccccc21",
    "assay endpoint": "composite z-score",
    "number": 1.51
  },
  {
    "compound": "CC(=O)OCC1C2CC[C@H]3C(OCc4ccc(F)cc4C(F)(F)F)OC[C@]4(C)[C@H]3C2=C(CN4C(=O)OC(C)(C)C)[C@H](C)C1COC(C)=O (some centres not stated)",
    "assay endpoint": "composite z-score",
    "number": -0.172
  },
  {
    "compound": "COC(=O)[C@@]1(Cc2ccccc2)[C@H]2c3cc(C(=O)N(C)C)n(Cc4ccc(C(F)(F)F)nc4)c3C[C@H]2CN1C(=O)c1ccccc1",
    "assay endpoint": "composite z-score",
    "number": 0.167
  },
  {
    "compound": "CO[C@H]1O[C@H](CO)[C@@H](OC(=O)Nc2ccc3c(c2)OCO3)[C@H](OC(=O)Nc2ccccc2-c2ccccc2)[C@H]1OC(=O)Nc1ccccc1-c1ccccc1",
    "assay endpoint": "composite z-score",
    "number": 0.384
  },
  {
    "compound": "O=C1[C@H]2C=C(I)[C@H](C[C@@H]2c2ccccc2)[C@@]12CO2",
    "assay endpoint": "composite z-score",
    "number": -0.114
  },
  {
    "compound": "COCCCNC(=O)[C@@]1(CCS(=O)(=O)c2ccccc2)COC(c2ccc(OCCCO)cc2)=N1",
    "assay endpoint": "composite z-score",
    "number": 1.29
  },
  {
    "compound": "NC(=O)N1C(=O)C2C(C1=O)C1C=C(CCCO)C2C(C2CC2)N1Cc1sc2ccccc2c1Cl (configuration not stated)",
    "assay endpoint": "composite z-score",
    "number": 0.842
  },
  {
    "compound": "O=C(NC1CC1)[C@@H]1c2ccccc2C(=O)N(Cc2cc(C(F)(F)F)cc(C(F)(F)F)c2)[C@H]1c1ccc(CO)cc1",
    "assay endpoint": "composite z-score",
    "number": -0.73
  },
  {
    "compound": "O=C(NCc1ccccc1)[C@@H]1c2ccccc2C(=O)N(Cc2ccc(OC(F)(F)F)cc2)[C@H]1c1ccc(CO)cc1",
    "assay endpoint": "composite z-score",
    "number": 0.521
  },
  {
    "compound": "CC1CC/C=C\\[C@H]2OC34C=CCN(c5ccc6ccccc6c5)C(=O)[C@H]3N(C(C)CO)C(=O)[C@@H]4C2C(=O)O1 (some centres not stated)",
    "assay endpoint": "composite z-score",
    "number": -0.538
  }
]
